tgt: Peroxisome proliferator-activated receptor gamma/Nuclear receptor coactivator 1 (Homo sapiens, UniProt P37231)
Sequence (P37231 whole entry): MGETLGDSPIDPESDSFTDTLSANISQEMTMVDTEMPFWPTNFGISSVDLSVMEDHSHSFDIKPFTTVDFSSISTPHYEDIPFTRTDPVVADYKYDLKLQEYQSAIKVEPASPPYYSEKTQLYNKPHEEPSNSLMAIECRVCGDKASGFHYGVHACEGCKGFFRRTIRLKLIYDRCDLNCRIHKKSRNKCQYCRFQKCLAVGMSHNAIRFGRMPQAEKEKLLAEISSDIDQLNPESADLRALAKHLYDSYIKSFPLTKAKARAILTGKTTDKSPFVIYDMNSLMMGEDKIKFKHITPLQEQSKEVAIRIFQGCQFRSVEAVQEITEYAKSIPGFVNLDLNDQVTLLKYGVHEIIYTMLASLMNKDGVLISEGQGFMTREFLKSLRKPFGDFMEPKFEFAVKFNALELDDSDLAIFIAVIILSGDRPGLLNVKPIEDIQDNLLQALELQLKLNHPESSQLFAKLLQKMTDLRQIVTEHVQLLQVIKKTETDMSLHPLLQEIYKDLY
Sequence (Q15788 whole entry, further chain): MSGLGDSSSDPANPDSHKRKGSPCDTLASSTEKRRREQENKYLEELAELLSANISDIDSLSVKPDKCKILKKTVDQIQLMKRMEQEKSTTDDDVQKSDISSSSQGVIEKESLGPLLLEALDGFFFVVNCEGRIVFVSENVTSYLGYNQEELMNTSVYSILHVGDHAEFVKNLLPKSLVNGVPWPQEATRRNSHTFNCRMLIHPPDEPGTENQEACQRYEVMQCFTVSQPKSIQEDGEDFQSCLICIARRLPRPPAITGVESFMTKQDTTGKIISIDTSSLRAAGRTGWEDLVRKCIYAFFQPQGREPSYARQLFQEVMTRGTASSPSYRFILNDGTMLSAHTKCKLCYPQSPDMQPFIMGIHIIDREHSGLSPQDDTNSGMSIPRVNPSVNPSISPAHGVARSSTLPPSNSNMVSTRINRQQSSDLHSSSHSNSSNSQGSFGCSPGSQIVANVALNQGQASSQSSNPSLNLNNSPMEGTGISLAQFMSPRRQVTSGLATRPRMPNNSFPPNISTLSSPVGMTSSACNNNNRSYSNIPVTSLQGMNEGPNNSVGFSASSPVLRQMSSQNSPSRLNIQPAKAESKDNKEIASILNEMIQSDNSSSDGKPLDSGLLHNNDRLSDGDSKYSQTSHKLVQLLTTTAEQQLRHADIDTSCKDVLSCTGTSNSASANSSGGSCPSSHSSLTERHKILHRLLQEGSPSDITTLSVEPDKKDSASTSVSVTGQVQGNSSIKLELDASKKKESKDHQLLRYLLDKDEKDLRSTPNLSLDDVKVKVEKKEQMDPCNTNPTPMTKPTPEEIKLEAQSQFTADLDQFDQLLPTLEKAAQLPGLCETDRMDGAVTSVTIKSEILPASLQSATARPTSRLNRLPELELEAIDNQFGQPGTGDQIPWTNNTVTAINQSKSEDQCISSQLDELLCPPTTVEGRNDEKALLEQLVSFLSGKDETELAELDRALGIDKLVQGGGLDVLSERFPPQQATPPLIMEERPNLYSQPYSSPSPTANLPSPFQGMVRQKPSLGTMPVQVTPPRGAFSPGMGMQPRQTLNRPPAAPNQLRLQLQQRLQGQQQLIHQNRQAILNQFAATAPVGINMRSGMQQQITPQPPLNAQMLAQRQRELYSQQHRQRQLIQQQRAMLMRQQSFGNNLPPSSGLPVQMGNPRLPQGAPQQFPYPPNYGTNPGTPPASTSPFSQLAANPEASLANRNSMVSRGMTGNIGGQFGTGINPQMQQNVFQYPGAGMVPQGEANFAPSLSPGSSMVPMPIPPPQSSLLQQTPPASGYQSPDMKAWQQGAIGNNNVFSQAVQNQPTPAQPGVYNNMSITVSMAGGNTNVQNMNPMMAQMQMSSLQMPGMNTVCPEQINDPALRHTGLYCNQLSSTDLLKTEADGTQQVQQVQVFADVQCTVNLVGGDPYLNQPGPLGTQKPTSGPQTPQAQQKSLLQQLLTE
Assay type: functional
recorded.endpoint: EC50

Go through the items and report each one's EC50.
1. COc1ccc(-c2nc(-c3ccc(NC(=O)c4ccc(Br)o4)cc3)no2)cc1OC
2. CC(C)(C)c1ccc(-c2nnc3sc(-c4ccncc4)nn23)cc1
3. O=C(c1cccc(C(F)(F)F)c1)N1CCN(c2cc(O)nnc2-c2ccccc2)CC1
4. CC(C)(C)NC(=O)CSc1nc(O)cc(=O)n1-c1ccccc1F

## Result
> 79.4 µM (not active)
> 79.4 µM (not active)
> 79.4 µM (not active)
> 79.4 µM (not active)

Go through the items and report each one's EC50.
1. Cc1cccc(NC(=O)c2sc3nc(-c4ccc(F)cc4)cn3c2C)n1
2. C#CCn1/c(=N/C(=O)c2ccc(Cl)s2)sc2cccc(OC)c21
3. COc1ccc(-c2noc(Cc3ccccc3OC)n2)cc1

## Result
16.8 µM (not active)
18.4 µM (not active)
> 79.4 µM (not active)
